experimentalTarget: Microphthalmia-associated transcription factor (Homo sapiens) (UniProt O75030)
Sequence (O75030 whole entry, looked up): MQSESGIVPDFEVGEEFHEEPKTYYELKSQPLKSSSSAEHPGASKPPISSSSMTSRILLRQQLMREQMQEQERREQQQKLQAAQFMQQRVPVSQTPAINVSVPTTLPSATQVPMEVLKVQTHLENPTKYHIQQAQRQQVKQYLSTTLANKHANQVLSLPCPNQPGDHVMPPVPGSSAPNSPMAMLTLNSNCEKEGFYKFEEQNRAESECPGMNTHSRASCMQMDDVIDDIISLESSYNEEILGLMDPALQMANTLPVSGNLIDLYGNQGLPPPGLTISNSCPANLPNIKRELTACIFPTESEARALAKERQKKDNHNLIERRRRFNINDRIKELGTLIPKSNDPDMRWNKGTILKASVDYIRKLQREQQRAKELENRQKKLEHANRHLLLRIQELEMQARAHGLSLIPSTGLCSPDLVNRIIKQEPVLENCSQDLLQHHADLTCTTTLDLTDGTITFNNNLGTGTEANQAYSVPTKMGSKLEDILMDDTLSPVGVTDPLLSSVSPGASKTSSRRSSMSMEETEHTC
protocolNotes: MITF inhibitors, primary screen, biochemical, AlphaScreen, human (AID 1259374);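 also: 0% = vehicle wells with protein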
conditionParameters: AlphaScreen MITF homodimerization, bead proximity signal; at 2.6 µM; active compounds read high
The campaign covered roughly 650,000 compounds. About 5,900 (0.91%) were called active. What follows is part of a selection rich in actives, with near analogues and random picks from the rest.

compound	inhibition / %
COc1ccccc1NC(=O)N1CCC(CO)(Cc2ccccc2Cl)CC1	-1.19
Cc1ccc(S(=O)(=O)NC(=NC(CC(=O)O)C(=O)O)c2ccccc2)cc1 (configuration not stated)	-0.64
Cc1nc(CSc2ccc(-c3ccco3)nn2)cs1	5.98
O=C(CSc1nc2ccsc2c(=O)n1-c1ccc(Cl)cc1)N1CCCC1	-8.93
Cc1nc2ccccn2c1/C(O)=C1\C(=O)C(=O)N(Cc2ccccc2)C1c1cccnc1 (configuration not stated)	66.2
CCOc1ccc(C(=O)Nc2cccc(-c3nc4cc(C)cc(C)c4o3)c2)cc1[N+](=O)[O-]	8.35
CN1CCN(CCOCCOc2ccc3c(c2)CCC3)CC1	11.3
CC(C)C(=O)NC(NC(=S)Nc1ccccc1C(=O)O)C(Cl)(Cl)Cl (configuration not stated)	9.89
CCN1CCN(CCOCCOc2ccc([N+](=O)[O-])cc2)CC1	72
O=C(CN1CCN(C(=O)c2cccs2)CC1)c1cccs1	-1.86
Nc1cccc(-c2ccc(C(=O)Nc3ccc(N4CCOCC4)cc3)s2)c1	13.4
Cc1nc(C(C)N(C)C(=O)Cn2cc(NC(=O)CCOc3ccccc3)cn2)c(C)s1 (configuration not stated)	-7.45
CC1=C(C#N)C(=O)NC(=O)/C1=C/c1ccc(-c2ccc(Cl)cc2Cl)o1	13.9
COc1ccccc1C(=O)NCC(c1ccc2c(c1)CCCN2C)N1CCOCC1 (configuration not stated)	-1.79
Cc1ccc(C(=O)N/N=C\c2ccc(-c3ccc(Br)cc3)o2)cn1	8.68
Cc1c(C(=O)Nc2cccc(C(F)(F)F)c2)sc2ncn(C)c(=O)c12	-1.25
O=C(NNC(=O)c1cc([N+](=O)[O-])ccc1Cl)c1cccc(Cl)c1	-0.55
CCOc1ccc(OCCN2CCNCC2)cc1	12.2
CN1CCN(CCCCOc2ccc(C#N)cc2)CC1	1.14
Cc1cccc(CN2CCC(N3CCN(C(=O)c4cccs4)CC3)CCC2=O)c1 (configuration not stated)	-6.77
COc1ccc(OCCOCCOc2ccc([N+](=O)[O-])cc2Cl)cc1	3.66
O=C(NCCOc1ccccc1)c1cc(-c2ccccc2)nc2c(Cl)cccc12	-8.8

* * *

experimentalTarget: Microphthalmia-associated transcription factor (Homo sapiens)
protocolNotes: MITF inhibitors, primary screen, biochemical, AlphaScreen, human (AID 1259374);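 also: 0% = vehicle wells with protein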
conditionParameters: AlphaScreen MITF homodimerization, bead proximity signal; at 2.6 µM
The campaign covered roughly 650,000 compounds. About 5,900 (0.91%) were called active. Cut-off read from the data, not from the text of the source: active = inhibition above about 50%; inactive = the rest. For the sample, actives were picked, then their nearest neighbours and some compounds at random.
Outcome codes: active, inactive

molecule	discreteLabel
Cc1nc(-c2cncc(Br)c2)cc(N2CCC(O)CC2)n1	inactive
CN(Cc1ccccc1)C(=O)Cc1c(C(=O)O)n(C)c2ccccc12	inactive
COc1cc(/C=C2/NC(=O)N(c3ccccc3)C2=O)cc(OC)c1O	inactive
Cn1c(C(=O)O)c(CC(=O)Nc2ccc(F)cc2)c2ccccc21	inactive
Cc1c2c(c(O)c3c(O)cccc13)C(=O)OC2[C@@H]1C(N(C)C)C(O)=C(C(N)=O)C(=O)[C@H]1O (stereo not given in full)	active
